Numbers sourced from ChEMBL document CHEMBL1144441.

Quick reference for MTD among some molecules
System: Mus musculus
Assay: Maximum tolerated dose after intraperitoneal administration in mouse (period of 28 days)
Type: functional

{"molecule": "C[C@@H]1C[C@@]2(NCCS2)C2(O)O[C@@H]3C[C@@]4(CO)[C@@H](CC[C@@H]5[C@@H]4CC[C@]4(C)[C@@H](C6=CC(=O)OC6)CC[C@]54CO)C[C@H]3O[C@@H]2O1 (some centres undefined)", "MTD": "5 mg/kg"}
{"molecule": "CC(=O)OC[C@]12C[C@H]3OC4(O[Si](C)(C)C)[C@@H](O[C@H](C)C[C@@]45N=C(N)CS5)O[C@@H]3C[C@@H]1CC[C@@H]1[C@@H]2CC[C@]2(C)[C@@H](C3=CC(=O)OC3)CC[C@]12CO[Si](C)(C)C (some centres undefined)", "MTD": ">160 mg/kg"}
{"molecule": "C[C@@H]1C[C@@]2(NCCS2)[C@]2(O)O[C@@H]3C[C@@]4(C=O)[C@@H](CC[C@@H]5[C@@H]4CC[C@]4(C)[C@@H](C6=CC(=O)OC6)CC[C@]54O)C[C@H]3O[C@@H]2O1", "MTD": "1.25 mg/kg"}
{"molecule": "C[C@@H]1C[C@@]2(N[C@@H](CC(=O)c3ccccc3)CS2)C2(O)O[C@@H]3C[C@@]4(CO)[C@@H](CC[C@@H]5[C@@H]4CC[C@]4(C)[C@@H](C6=CC(=O)OC6)CC[C@]54CO)C[C@H]3O[C@@H]2O1 (some centres undefined)", "MTD": "80 mg/kg"}

====

# MTD values compiled below
Test system: Mus musculus
Experiment: Maximum tolerated dose after intraperitoneal administration in mouse (period of 28 days)
Format: functional

{"compound": "C[C@@H]1C[C@@]2(N=C(N)CS2)C2(O)O[C@@H]3C[C@@]4(C=O)[C@@H](CC[C@@H]5[C@@H]4CC[C@]4(C)[C@@H](C6=CC(=O)OC6)CC[C@]54CO)C[C@H]3O[C@@H]2O1 (some centres undefined)", "target_system": "Mus musculus", "MTD": "10 mg/kg"}
{"compound": "C[C@@H]1C[C@@]2(N=C(N)CS2)C2(O[Si](C)(C)C)O[C@@H]3C[C@@]4(CO[Si](C)(C)C)[C@@H](CC[C@@H]5[C@@H]4CC[C@]4(C)[C@@H](C6=CC(=O)OC6)CC[C@]54CO[Si](C)(C)C)C[C@H]3O[C@@H]2O1 (some centres undefined)", "target_system": "Mus musculus", "MTD": ">160 mg/kg"}
{"compound": "C[C@@H]1C[C@@]2(N=C(N)CS2)C2(O[Si](C)(C)C)O[C@@H]3C[C@@]4(CO)[C@@H](CC[C@@H]5[C@@H]4CC[C@]4(C)[C@@H](C6=CC(=O)OC6)CC[C@]54CO[Si](C)(C)C)C[C@H]3O[C@@H]2O1 (some centres undefined)", "target_system": "Mus musculus", "MTD": ">160 mg/kg"}
{"compound": "Cc1ccc(S(=O)(=O)OC[C@]23C[C@H]4OC5(O)[C@@H](O[C@H](C)C[C@@]56N=C(N)CS6)O[C@@H]4C[C@@H]2CC[C@@H]2[C@@H]3CC[C@]3(C)[C@@H](C4=CC(=O)OC4)CC[C@]23CO)cc1 (some centres undefined)", "target_system": "Mus musculus", "MTD": "10 mg/kg"}
{"compound": "C[C@@H]1C[C@@]2(N=C(N)CS2)C2(O)O[C@@H]3C[C@@]4(COC(=O)CCc5ccccc5)[C@@H](CC[C@@H]5[C@@H]4CC[C@]4(C)[C@@H](C6=CC(=O)OC6)CC[C@]54CO)C[C@H]3O[C@@H]2O1 (some centres undefined)", "target_system": "Mus musculus", "MTD": ">40 mg/kg"}
{"compound": "CC(=O)OC[C@]12C[C@H]3OC4(O)[C@@H](O[C@H](C)C[C@@]45N=C(N)CS5)O[C@@H]3C[C@@H]1CC[C@@H]1[C@@H]2CC[C@]2(C)[C@@H](C3=CC(=O)OC3)CC[C@]12CO (some centres undefined)", "target_system": "Mus musculus", "MTD": ">40 mg/kg"}
{"compound": "C[C@@H]1C[C@@]2(N=C(N)CS2)C2(O[Si](C)(C)C)O[C@@H]3C[C@@]4(C=O)[C@@H](CC[C@@H]5[C@@H]4CC[C@]4(C)[C@@H](C6=CC(=O)OC6)CC[C@]54CO[Si](C)(C)C)C[C@H]3O[C@@H]2O1 (some centres undefined)", "target_system": "Mus musculus", "MTD": ">160 mg/kg"}
{"compound": "C[C@@H]1C[C@@]2(N[C@H](CC(=O)c3ccccc3)CS2)C2(O)O[C@@H]3C[C@@]4(C=O)[C@@H](CC[C@@H]5[C@@H]4CC[C@]4(C)[C@@H](C6=CC(=O)OC6)CC[C@]54CO)C[C@H]3O[C@@H]2O1 (some centres undefined)", "target_system": "Mus musculus", "MTD": "10 mg/kg"}
{"compound": "CC(=O)OC[C@]12C[C@H]3OC4(O)[C@@H](O[C@H](C)C[C@@]45NC(=O)CS5)O[C@@H]3C[C@@H]1CC[C@@H]1[C@@H]2CC[C@]2(C)[C@@H](C3=CC(=O)OC3)CC[C@]12CO (some centres undefined)", "target_system": "Mus musculus", "MTD": ">40 mg/kg"}
